Data provenance: patent US9695132B2

molecular target: FGFR4-WT (Homo sapiens (Human), UniProt P22455); assay: Omnia assay for potency assessment against FGFR4 enzyme; type: biochemical; conditions: method a: [FGFR4-WT]=10 nM (Invitrogen), [ATP]=300 uM, [Y10-Sox]=10 uM
Sequence (P22455 22-802): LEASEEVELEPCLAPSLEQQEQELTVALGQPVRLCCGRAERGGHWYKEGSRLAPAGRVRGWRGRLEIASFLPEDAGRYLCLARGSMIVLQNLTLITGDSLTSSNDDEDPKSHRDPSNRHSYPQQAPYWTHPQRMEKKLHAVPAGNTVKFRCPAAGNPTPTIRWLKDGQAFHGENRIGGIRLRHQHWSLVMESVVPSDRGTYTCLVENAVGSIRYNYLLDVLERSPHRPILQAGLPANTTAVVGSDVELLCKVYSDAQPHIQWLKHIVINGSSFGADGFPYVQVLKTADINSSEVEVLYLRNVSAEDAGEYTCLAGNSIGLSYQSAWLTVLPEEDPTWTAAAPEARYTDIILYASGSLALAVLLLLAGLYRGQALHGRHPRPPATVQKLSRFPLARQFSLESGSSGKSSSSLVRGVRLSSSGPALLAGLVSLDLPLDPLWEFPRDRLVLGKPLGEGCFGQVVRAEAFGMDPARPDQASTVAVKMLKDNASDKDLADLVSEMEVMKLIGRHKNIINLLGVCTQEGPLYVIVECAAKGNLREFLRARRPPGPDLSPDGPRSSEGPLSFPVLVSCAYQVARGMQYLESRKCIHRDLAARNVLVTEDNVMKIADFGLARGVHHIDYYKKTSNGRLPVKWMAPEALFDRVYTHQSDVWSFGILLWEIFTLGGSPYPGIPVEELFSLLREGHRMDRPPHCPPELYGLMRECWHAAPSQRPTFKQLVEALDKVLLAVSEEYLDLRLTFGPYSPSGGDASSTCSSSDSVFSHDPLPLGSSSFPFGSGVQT
Listed here are molecules together with their documented IC50.

Worked cases, answers included:
{"molecule": "C=CC(=O)NC1CN(C2CCN(C)CC2)CC1Nc1ncc2c(n1)N(C)C(=O)N(c1c(Cl)c(OC)cc(OC)c1Cl)C2 (racemic)", "result": "101 to 500 nM"}
{"molecule": "C=CC(=O)NC1CN(c2ccccn2)CC1Nc1ncc2c(n1)N(C)C(=O)N(c1c(Cl)c(OC)cc(OC)c1Cl)C2 (centres unmarked)", "result": "< 100 nM"}
{"molecule": "C=CC(=O)Nc1ccccc1Nc1ncc2c(n1)N(Cc1cn[nH]c1)C(=O)N(c1cc(OC)cc(OC)c1)C2", "result": "< 100 nM"}
{"molecule": "C=CC(=O)Nc1cc(-c2cnn(C)c2)ccc1Nc1ncc2c(n1)N(C)C(=O)N(c1c(Cl)c(OC)cc(OC)c1Cl)C2", "result": "< 100 nM"}
{"molecule": "C=CC(=O)N[C@H]1CCCC[C@H]1Nc1ncc2c(n1)N(C)C(=O)N(c1c(Cl)c(OCC)cc(OCC)c1Cl)C2", "result": "101 to 500 nM"}
{"molecule": "C=CC(=O)Nc1ccccc1Nc1ncc2c(n1)N(C)C(=O)N(c1c(Cl)cccc1Cl)C2", "result": "101 to 500 nM"}
{"molecule": "C=CC(=O)NC1CCCCC1Nc1ncc2c(n1)N(Cc1csc(C)n1)C(=O)N(c1c(Cl)c(OC)cc(OC)c1Cl)C2 (centres unmarked)", "result": "< 100 nM"}
{"molecule": "C=CC(=O)Nc1ccccc1Nc1ncc2c(n1)N(CC1CCNCC1)C(=O)N(c1cc(OC)cc(OC)c1)C2", "result": "< 100 nM"}
{"molecule": "C=CC(=O)Nc1cc(-c2nnn(C)n2)ccc1Nc1ncc2c(n1)N(C)C(=O)N(c1cc(OC)cc(OC)c1)C2", "result": "< 100 nM"}
{"molecule": "C=CC(=O)N[C@H]1CCCC[C@H]1Nc1ncc2c(n1)N(C)C(=O)N(c1c(F)c(OC)cc(OC)c1Br)C2", "result": "101 to 500 nM"}

Prompt: Any idea what IC50 was measured for C=CC(=O)NC1COCC1Nc1ncc2c(n1)N(C)C(=O)N(c1c(F)c(OC)cc(OC)c1F)C2 (centres unmarked) ?
Response: < 100 nM

Prompt: Query `C=CC(=O)Nc1ccc(-c2cnn(C)c2)cc1Nc1ncc2c(n1)N(C)C(=O)N(c1cc(OC)cc(OC)c1)C2` next
Response: < 100 nM

Prompt: Would you mind doing `C=CC(=O)Nc1ccccc1Nc1ncc2c(n1)N(C)C(=O)N(c1cc(OC)cc(OC)c1F)C2` as well?
Response: < 100 nM

Prompt: Please answer likewise for `C=CC(=O)Nc1ccccc1Nc1ncc2c(n1)N(Cc1cccnc1)C(=O)N(c1cc(OC)cc(OC)c1)C2`
Response: < 100 nM
